From: patent US6300350A

Target: RARα (Homo sapiens)
Sequence (P10276 whole entry): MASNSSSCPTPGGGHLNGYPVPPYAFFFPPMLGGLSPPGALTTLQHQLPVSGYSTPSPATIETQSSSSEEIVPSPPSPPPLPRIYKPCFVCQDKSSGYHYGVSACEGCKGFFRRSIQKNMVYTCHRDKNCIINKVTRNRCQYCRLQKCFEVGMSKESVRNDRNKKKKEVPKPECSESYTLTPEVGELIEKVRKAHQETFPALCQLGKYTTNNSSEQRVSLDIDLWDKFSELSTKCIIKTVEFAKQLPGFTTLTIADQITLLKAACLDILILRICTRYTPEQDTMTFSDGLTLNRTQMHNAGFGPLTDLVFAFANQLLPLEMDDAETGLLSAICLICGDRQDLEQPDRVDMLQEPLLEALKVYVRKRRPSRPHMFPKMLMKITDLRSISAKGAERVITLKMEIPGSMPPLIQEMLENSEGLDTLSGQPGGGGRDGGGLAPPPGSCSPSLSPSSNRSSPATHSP
Experiment: Transactivation, RARα
Assay type: cell-based
Details: Table III
Excerpt: As used herein, the term "transactivation" refers to the ability of a retinoid to activate the transcription of a gene where the gene transcription is initiated by the binding of a ligand to the particular retinoic acid receptor being tested, i.e., RARα, RARβ, or RARγ. Determining the ability of a compound to transactivate a retinoic acid receptor may be performed by methods known to those of skill in the art. […] Apfel etal., Proc. Nat.
measurement-label: EC50 (µM)

* CC1(C)CCOc2ccc(C(=O)/C=C/c3ccc(C(=O)O)cc3)cc21 | 10
* CCCCCC(=O)c1cc2c(cc1/C=C/c1ccc(C(=O)O)cc1)C(C)(C)CCC2(C)C | 10
